- study_system: Hsp90 (Homo sapiens, UniProt P07900)
- Construct: N-terminal domain of human Hsp90α (residues 1–236); made in house; host or cells: BL21 cells (E. coli)
- protocol_text: KD by SPR titration of purified compounds
- Format: binding
- condition: purified product of the CRM, 25 °C, average of at least two determinations, read-out: KD (SPR) (µM) of pure
experimental_endpoint: Kd (µM)

1 = CN(C(=O)c1ccc(O)cc1O)c1ccc(C(N)=O)cc1
2 = NC(=O)c1ccc(O)cc1O
Given the listed records, identify the one among 1 and 2 with higher Kd. The response must carry the label of the picked entry. 2
(2: 2000 µM, 1: 2 µM)
